- System: Pseudomonas aeruginosa
- assayProtocol: Antibacterial activity against Pseudomonas aeruginosa ATTC 27853 at MIC after 3 to 4 days by disc diffusion method
- Type: functional
property: diameter of the inhibition zone (DIZ) (mm)
Provide the reading as a plain figure in mm.

[
  {
    "compound": "COc1ccc(C2Nn3c(nnc3-c3cc(OC)ccc3Br)S2)c(OC)c1 (configuration not stated)",
    "unitsOfMeasure": "mm",
    "dataValue": 16
  }
]

// diameter of the inhibition zone (DIZ) lookup, key: COc1ccc(C2Nn3c(nnc3-c3cc(OC)ccc3Br)S2)cc1 (configuration not stated)
11

Looking for the measured diameter of the inhibition zone (DIZ) of CC1(C)S[C@@H]2[C@H](NC(=O)[C@H](N)c3ccccc3)C(=O)N2[C@H]1C(=O)O , can you help?
25

So what's the measured diameter of the inhibition zone (DIZ) for this one? COc1ccc(Br)c(-c2nnc3n2NC(c2cccc(Cl)c2)S3)c1 (configuration not stated)
11

Given the compound COc1ccc(Br)c(-c2n[nH]c(=S)n2N)c1 , what is its reported diameter of the inhibition zone (DIZ)?
11

Looking for the measured diameter of the inhibition zone (DIZ) of COc1ccc(Br)c(-c2nnc3n2NC(c2ccccc2Cl)S3)c1 (configuration not stated) , can you help?
11

What diameter of the inhibition zone (DIZ) value was documented for this compound, COc1ccc(Br)c(-c2nnc3sc(-c4ccccc4)nn23)c1 ?
11

Please report the recorded diameter of the inhibition zone (DIZ) for COc1ccc(Br)c(-c2nnc3n2NC(c2ccc([N+](=O)[O-])cc2)S3)c1 (configuration not stated) .
16

# query: diameter of the inhibition zone (DIZ) of entry COc1ccc(-c2nn3c(-c4cc(OC)ccc4Br)nnc3s2)cc1
16

Recorded diameter of the inhibition zone (DIZ) of COc1ccc(Br)c(-c2nnc3n2NC(c2ccc(-c4ccccc4)cc2)S3)c1 (configuration not stated) , please.
11

Using the record for COc1ccc(Br)c(-c2nnc3sc(-c4ccc([N+](=O)[O-])cc4)nn23)c1 , report its diameter of the inhibition zone (DIZ).
11

Quick check: diameter of the inhibition zone (DIZ) of COc1ccc(Br)c(-c2nnc3sc(-c4ccc(N)cc4)nn23)c1 ?
16

###

- System: Pseudomonas aeruginosa
- assayProtocol: Antibacterial activity against Pseudomonas aeruginosa ATTC 27853 at MIC after 3 to 4 days by disc diffusion method
- Type: functional
property: diameter of the inhibition zone (DIZ) (mm)
Answer with a number only, understood to be in mm.

Reference set (5 entries):
[
  {
    "compound": "COc1ccc(Br)c(-c2nnc3n2NC(c2ccccc2)S3)c1 (stereo not given)",
    "unitsOfMeasure": "mm",
    "diameter of the inhibition zone (DIZ)": 11
  },
  {
    "compound": "COc1ccc(Br)c(-c2nnc3n2NC(c2ccc(C)cc2)S3)c1 (stereo not given)",
    "unitsOfMeasure": "mm",
    "diameter of the inhibition zone (DIZ)": 16
  },
  {
    "compound": "COc1ccc(Br)c(-c2nnc3sc(-c4cc(C)cc(C)c4)nn23)c1",
    "unitsOfMeasure": "mm",
    "diameter of the inhibition zone (DIZ)": 16
  },
  {
    "compound": "COc1ccc(Br)c(-c2nnc3n2NC(c2ccc(Cl)cc2)S3)c1 (stereo not given)",
    "unitsOfMeasure": "mm",
    "diameter of the inhibition zone (DIZ)": 16
  },
  {
    "compound": "COc1ccc(Br)c(-c2nnc3sc(-c4ccc(C)cc4O)nn23)c1",
    "unitsOfMeasure": "mm",
    "diameter of the inhibition zone (DIZ)": 16
  }
]

Give its diameter of the inhibition zone (DIZ) value. Item: COc1ccc(Br)c(-c2nnc3sc(-c4ccc(C)cc4)nn23)c1
11

diameter of the inhibition zone (DIZ) lookup needed for COc1ccc(Br)c(-c2nnc3sc(-c4cc([N+](=O)[O-])cc([N+](=O)[O-])c4)nn23)c1 , thanks.
11

Request the reported diameter of the inhibition zone (DIZ) associated with COc1ccc(Br)c(-c2nnc3sc(-c4ccc(I)cc4I)nn23)c1
11

Need diameter of the inhibition zone (DIZ), item COc1ccc(Br)c(-c2nnc3sc(-c4cc(Cl)cc(Cl)c4)nn23)c1
16

What does the record list as diameter of the inhibition zone (DIZ) for COc1ccc(Br)c(-c2nnc3n2NC(c2ccccc2OC)S3)c1 (stereo not given) ?
11

###

- Test system: Radical scavenging activity
- assayProtocol: Antioxidant activity of the compound assessed as DPPH radical scavenging activity at 400 ug/ml after 20 mins
- Format: functional
// False strictly below 60% in inhibition; True otherwise

// inclusive: inhibition at least 60%? input: COc1ccc(Br)c(-c2nnc3sc(-c4cc(Cl)cc(Cl)c4)nn23)c1
False

Reported inhibition reaches at least 60% for COc1ccc(Br)c(-c2nnc3n2NC(c2ccc([N+](=O)[O-])cc2)S3)c1 (stereo unspecified) ?
True

Check if inhibition >= 60% (inclusive). Item: COc1ccc(Br)c(-c2nnc3sc(-c4ccc([N+](=O)[O-])cc4)nn23)c1
True

Does the reported inhibition for COc1ccc(Br)c(-c2n[nH]c(=S)n2N)c1 fall at or above the 60% mark?
False

For this compound, is measured inhibition 60% or higher? COc1ccc(Br)c(-c2nnc3n2NC(c2cccc(Cl)c2)S3)c1 (stereo unspecified)
False

Entry COc1ccc(Br)c(-c2nnc3sc(-c4cc([N+](=O)[O-])cc([N+](=O)[O-])c4)nn23)c1 : is its inhibition no less than 60%?
True

Has COc1ccc(Br)c(-c2nnc3sc(-c4ccc(N)cc4)nn23)c1 a recorded inhibition greater than or equal to 60%?
True

I'd appreciate it if you could say whether O=C1O[C@H]([C@@H](O)CO)C(O)=C1O has inhibition at least equal to 60%.
True

Given the entry COc1ccc(Br)c(-c2nnc3n2NC(c2ccccc2Cl)S3)c1 (stereo unspecified) , answer whether its inhibition meets or surpasses 60%.
False

Check the entry COc1ccc(C2Nn3c(nnc3-c3cc(OC)ccc3Br)S2)cc1 (stereo unspecified) : does inhibition equal or exceed 60%?
True

Hello, I need to know if COc1ccc(Br)c(-c2nnc3n2NC(c2ccc(Cl)cc2)S3)c1 (stereo unspecified) has measured inhibition not below 60%. Thanks!
False
